Values from patent US12234238B2

- Test protocol: Rat infusion study: clinical signs and IV plasma pharmacokinetics across infusion lengths
- Type: in vivo
- Measurement parameters: male, Sprague-Dawley, rat, plasma, iv, 4 mg/kg, male Sprague-Dawley rats, 4 mg/kg IV, 2 h infusion
Property label: Cmax

QUERY: Identify Cmax associated with the compound C[C@H](N)CCCc1cc(Cl)c(F)c(-c2cc3cn(-c4ccc([C@@H]5CCC[C@@H](CCSC(=N)N)N5)cc4)c(=O)nc3[nH]2)c1 [Compound 34]
RESULT: 8120 ng/mL

---

- Test protocol: Rat infusion study: clinical signs and IV plasma pharmacokinetics across infusion lengths
- Format: in vivo
- Measurement parameters: male, Sprague-Dawley, rat, plasma, iv, 4 mg/kg, male Sprague-Dawley rats, 4 mg/kg IV, 24 h infusion
Property label: Cmax (µg/mL)
Answer format: numeric, µg/mL implied, no suffix.

QUERY: Identify Cmax associated with the compound C[C@H](N)CCCc1cc(Cl)c(F)c(-c2cc3cn(-c4ccc([C@@H]5CCC[C@@H](CCSC(=N)N)N5)cc4)c(=O)nc3[nH]2)c1
RESULT: 0.56
